- ASSAY SYSTEM: UniProtKB P0DTD1
- PROTOCOL TEXT: Inhibition of SARS-CoV-2 PLpro
REPORTED ENDPOINT: IC50 (nM)
Numbers only here, please. The scale is nM.

Prompt: Given the entry CC1=NC2C(=O)C(Nc3ccc(C)cc3)=CC(=O)C2S1 (configuration not stated) , report its measured IC50.
Response: 390

Prompt: Given the entry COC(=O)/C=C/C(=O)NNC(=O)/C=C/c1ccccc1C(=O)N[C@H](C)c1cccc2ccccc12 , report its measured IC50.
Response: 94

---

- ASSAY SYSTEM: Replicase polyprotein 1ab (Severe acute respiratory syndrome coronavirus 2, UniProt P0DTD1)
- PROTOCOL TEXT: Inhibition of SARS-CoV-2 MPro expressed in Escherichia coli BL21(DE3) using Dabcyl-KLSAVLQSGERKM-Edans as substrate assessed as inhibition constant measured for 30 mins by fluorimetry based microplate reader analysis
REPORTED ENDPOINT: Ki (µM)
Numbers only here, please. The scale is µM.

Prompt: Given the entry Cl.O=C1C=C(Nc2ccccc2N2CCNCC2)C2=NS(=O)(=O)c3cccc1c32 , report its measured Ki.
Response: 7.1

---

- ASSAY SYSTEM: Cathepsin B (Homo sapiens)
- PROTOCOL TEXT: Inhibition of His-tagged recombinant human Cathepsin B expressed in HEK293 cells using Z-Leu-Arg-AMC as substrate incubated for 30 mins followed by substrate addition by fluorescence based analysis
REPORTED ENDPOINT: IC50 (µM)
Numbers only here, please. The scale is µM.

Prompt: Given the entry Cl.O=C1C=C(Nc2ccccc2N2CCNCC2)C2=NS(=O)(=O)c3cccc1c32 , report its measured IC50.
Response: 8.8

---

- ASSAY SYSTEM: Replicase polyprotein 1ab (Severe acute respiratory syndrome coronavirus 2, UniProt P0DTD1)
- PROTOCOL TEXT: Inhibition of SARS-CoV2 main protease
REPORTED ENDPOINT: Ki
Please state the value followed by its unit.

Prompt: Given the entry CC(C)C[C@H](NC(=O)[C@@H](NC(=O)OCc1ccccc1)C(C)C)C(=O)N[C@@H](C[C@@H]1CCNC1=O)C(=O)c1nc2ccccc2s1 , report its measured Ki.
Response: 14.5 nM
